src = ChEMBL document CHEMBL3132826

Target: UniProt P08842
Sequence (P08842 whole entry): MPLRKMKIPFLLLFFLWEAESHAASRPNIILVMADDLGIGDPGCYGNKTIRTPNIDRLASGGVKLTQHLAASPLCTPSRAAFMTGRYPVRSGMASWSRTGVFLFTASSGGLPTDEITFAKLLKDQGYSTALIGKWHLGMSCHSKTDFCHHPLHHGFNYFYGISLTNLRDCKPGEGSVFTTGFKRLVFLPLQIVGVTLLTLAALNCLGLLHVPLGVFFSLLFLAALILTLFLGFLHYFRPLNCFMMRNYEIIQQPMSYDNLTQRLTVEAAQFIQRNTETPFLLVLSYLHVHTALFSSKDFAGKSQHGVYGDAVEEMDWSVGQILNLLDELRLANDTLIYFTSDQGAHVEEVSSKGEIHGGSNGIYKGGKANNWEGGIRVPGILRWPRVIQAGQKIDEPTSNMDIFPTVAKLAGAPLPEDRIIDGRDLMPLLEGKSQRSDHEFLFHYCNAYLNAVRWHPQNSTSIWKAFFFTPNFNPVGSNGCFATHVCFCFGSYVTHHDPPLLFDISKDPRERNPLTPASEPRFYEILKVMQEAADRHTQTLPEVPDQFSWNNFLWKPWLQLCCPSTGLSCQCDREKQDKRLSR
Experiment: Inhibition of STS (unknown origin) expressed in HEK-293 cells assessed as transformation of [3H]-E1S into E1 at 1 uM by […]
Format: cell-based
Conditions: HEK293
quantityName: inhibition (%)

| itemSmiles | u | inhibition |
| --- | --- | --- |
| CCN(Cc1cccnc1)c1cccc(C(=O)N2CCc3ccc(OS(N)(=O)=O)cc3C2)c1 | % | 33.5 |
| CCN(Cc1ccccc1)Cc1ccc(S(=O)(=O)N2CCc3ccc(OS(N)(=O)=O)cc3C2)cc1 | % | 31 |

I = CCN(Cc1cccnc1)c1ccc(C(=O)N2CCc3ccc(OS(N)(=O)=O)cc3C2)cc1
II = NS(=O)(=O)Oc1ccc2c(c1)CN(C(=O)c1cccc(N3CCN(Cc4ccccc4)CC3)c1)CC2
Looking only at measured inhibition, which entry is lower, I or II ? Reply with the label of the item you choose.
II

I = NS(=O)(=O)Oc1ccc2c(c1)CN(C(=O)c1ccc(N(Cc3ccccc3)Cc3ccco3)cc1)CC2
II = CN1CCN(c2ccc(C(=O)N3CCc4ccc(OS(N)(=O)=O)cc4C3)cc2)CC1
III = NS(=O)(=O)Oc1ccc2c(c1)CN(C(=O)c1cccc(N3CCC(Cc4ccccc4)CC3)c1)CC2
Please list these in order of increasing inhibition. Thank you! Reply with the labels, ordered as the question asks.
II, III, I
(II: 23.3%, III: 41.9%, I: 98.2%)

a = CN(C)CCN(CCN(C)C)c1cccc(C(=O)N2CCc3ccc(OS(N)(=O)=O)cc3C2)c1
b = CN(C)CCN(Cc1ccccc1)c1cccc(C(=O)N2CCc3ccc(OS(N)(=O)=O)cc3C2)c1
Name the one with the greater inhibition value, either a or b as given. Reply with the label of the item you choose.
b
(b: 28.6%, a: 17.1%)

I = CCN(Cc1ccc(Br)cc1)c1ccc(C(=O)N2CCc3ccc(OS(N)(=O)=O)cc3C2)cc1
II = NS(=O)(=O)Oc1ccc2c(c1)CN(C(=O)c1cccc(N(CCO)Cc3ccccc3)c1)CC2
Name the one with the greater inhibition value, either I or II as given. Reply with the label of the item you choose.
I
(I: 95.9%, II: 32.4%)
